assayNotes: Luminescence Cell-Based Dose Confirmation HTS to Identify Activators of 5'UTR Stem-Loop Driven Alpha-Synuclein mRNA Translation in H4 Neuroglioblastoma Cells. [Related pubchem assays: 1829 (Project Summary), 1814 (Primary HTS)]
Format: functional
Calls of active or inactive are those of the source.
Examples of compounds with documented EC50 follow.

itemSmiles | EC50
O=C1OC(c2ccccc2)=N/C1=C\N1CCCCC1 | 0.176 µM (active)
CCOC(=O)N1CC=C2C(C#N)=C(N)C(C#N)(C#N)[C@H](c3ccccc3OCC)[C@H]2C1 | > 120 µM (not active)
Cc1ccc2c(c1)/C(=N/C1CCCCC1)c1cc3ccccc3nc1-2 | 14.9 µM (active)
COc1cccc(-c2csc(NC(=O)C3CC3)n2)c1 | 94 µM (active)
Cc1ccc(C2=CSC3=NNC4(CCCCC4)NN23)cc1 | 9.71 µM (active)

Q: Recorded EC50 for `O=C(c1ccco1)N1CCn2c1nc1ccccc12` , please?
Ans: 1.12 µM (active)

###

assayNotes: Luminescence Cell-Based Dose Response HTS to Identify Activators of Luciferase Translation or Activity in H4 […] Cells. [Related pubchem assays: 1829 (Project Summary), 1814 (Primary HTS)]
Assay type: functional
Active and inactive are the calls of the source.
endpointLabel: EC50

compound | EC50
Cc1ccc2c(c1)/C(=N/C1CCCCC1)c1cc3ccccc3nc1-2 | 37.2 µM (active)
CCS(=O)(=O)C1=NSC2=NC(=O)/C(=C\c3cc(C)n(-c4cccc(OC)c4)c3C)C(=N)N21 | > 120 µM (not active)
O=C1OC(c2ccccc2)=N/C1=C\N1CCCCC1 | 0.374 µM (active)

Q: Recorded EC50 for `c1ccc(Cn2c(Sc3nnnn3-c3ccccc3)nnc2-c2ccccc2)cc1` , please?
Ans: 11.9 µM (active)

Q: For `O=[N+]([O-])c1cc(-c2n(-c3ccccn3)c3ccccc3[n+]2-c2ccccn2)ccc1Cl` then?
Ans: 14.2 µM (active)

Q: For CC(C)N1C(=O)CN(C2CCCCCC2)C(=O)C1c1ccccc1F (configuration not stated) then?
Ans: 20.9 µM (active)

Q: For `Cc1ccc(C(=O)c2oc3ccc(Cl)cc3c2NC(=O)CN2CCN(C)CC2)cc1` then?
Ans: > 120 µM (not active)

###

targetOrTestSystem: Cytochrome P450 2D6 (Homo sapiens);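 note: CYP2D6 member of a cytochrome P450 panel assay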
Sequence (P10635 whole entry): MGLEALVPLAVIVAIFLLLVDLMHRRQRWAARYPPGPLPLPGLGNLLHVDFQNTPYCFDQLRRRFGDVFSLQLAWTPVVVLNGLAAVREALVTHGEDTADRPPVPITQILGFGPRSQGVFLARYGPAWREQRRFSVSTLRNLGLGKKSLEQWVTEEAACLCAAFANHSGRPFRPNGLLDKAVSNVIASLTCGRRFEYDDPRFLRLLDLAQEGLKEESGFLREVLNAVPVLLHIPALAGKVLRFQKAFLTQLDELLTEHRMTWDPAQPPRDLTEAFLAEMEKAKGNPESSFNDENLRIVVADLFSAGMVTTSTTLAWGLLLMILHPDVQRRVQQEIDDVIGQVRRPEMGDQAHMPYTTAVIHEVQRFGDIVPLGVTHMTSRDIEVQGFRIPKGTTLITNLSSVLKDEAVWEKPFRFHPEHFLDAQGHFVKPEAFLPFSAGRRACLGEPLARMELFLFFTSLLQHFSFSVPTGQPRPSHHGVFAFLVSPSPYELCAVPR
Examples of compounds with documented AC50 follow.

Example cases with answers are listed next.
compound | AC50
CCC/C=C(\CCC)C(NS(=O)(=O)c1ccc(C(F)(F)F)cc1)c1ccccc1 (stereo not drawn) | 20 µM (inconclusive)
CCOC(=O)C1=C(c2ccccc2)N=c2s/c(=C\c3ccco3)c(=O)n2C1c1cccs1 (stereo not drawn) | 15.8 µM (inconclusive)
N#Cc1ccc(CN2CCC3(CC2)CCN(C(=O)c2cccc(F)c2)CC3)cc1 | 12.6 µM (inconclusive)
CC(=O)N1CCC2(CCCN(c3ncccn3)C2)CC1 | 31.6 µM (inconclusive)
CCNc1ncc2nc(-c3ccc(F)cc3)c(=O)n(-c3ccc(OC)cc3)c2n1 | 0.158 µM (inconclusive)
CCC(C)NC(=O)Cn1cnc2sc(C)cc2c1=O (stereo not drawn) | 25.1 µM (inconclusive)
Cc1cc(C)cc(N(CC(=O)NCCSc2ccccn2)S(=O)(=O)c2ccccc2)c1 | 11.2 µM (inconclusive)

Q: Recorded AC50 for CC1(C)CC2(CCO1)OC(=O)CC2C(=O)NCCc1ccccc1 (stereo not drawn) , please?
Ans: 22.4 µM (inconclusive)

Source of measurements: ChEMBL document CHEMBL1201862
